target: proton pump (H+/K+-ATPase) (Sus scrofa, UniProt P19156)
Construct: used as an enzyme source of the in vitro enzyme reaction assay of proton pump; membrane vesicles, lyophilized
Sequence (P19156 whole entry): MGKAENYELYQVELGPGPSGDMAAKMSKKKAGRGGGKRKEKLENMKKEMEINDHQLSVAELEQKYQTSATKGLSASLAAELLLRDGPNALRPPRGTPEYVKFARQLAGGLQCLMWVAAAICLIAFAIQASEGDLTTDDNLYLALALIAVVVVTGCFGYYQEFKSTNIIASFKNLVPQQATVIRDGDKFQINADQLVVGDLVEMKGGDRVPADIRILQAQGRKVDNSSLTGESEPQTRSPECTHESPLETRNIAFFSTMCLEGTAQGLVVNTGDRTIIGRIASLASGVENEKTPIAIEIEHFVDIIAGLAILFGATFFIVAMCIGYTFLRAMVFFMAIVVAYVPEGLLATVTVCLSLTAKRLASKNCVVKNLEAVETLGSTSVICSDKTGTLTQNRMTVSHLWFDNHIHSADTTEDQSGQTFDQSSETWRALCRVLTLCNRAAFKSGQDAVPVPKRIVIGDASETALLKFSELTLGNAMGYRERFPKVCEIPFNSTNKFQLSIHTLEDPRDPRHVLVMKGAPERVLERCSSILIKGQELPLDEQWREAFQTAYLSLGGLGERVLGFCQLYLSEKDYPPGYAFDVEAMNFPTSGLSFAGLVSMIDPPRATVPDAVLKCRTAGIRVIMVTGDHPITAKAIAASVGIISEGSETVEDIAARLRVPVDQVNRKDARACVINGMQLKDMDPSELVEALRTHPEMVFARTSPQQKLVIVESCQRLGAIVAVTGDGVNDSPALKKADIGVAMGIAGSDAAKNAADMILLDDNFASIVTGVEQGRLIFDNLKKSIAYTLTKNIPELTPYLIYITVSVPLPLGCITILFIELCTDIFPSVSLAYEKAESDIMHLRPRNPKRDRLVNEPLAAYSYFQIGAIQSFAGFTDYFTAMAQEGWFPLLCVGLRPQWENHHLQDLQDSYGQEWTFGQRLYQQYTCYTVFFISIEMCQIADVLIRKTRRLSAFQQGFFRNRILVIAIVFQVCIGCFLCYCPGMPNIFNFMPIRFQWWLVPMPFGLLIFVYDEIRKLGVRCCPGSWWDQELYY
Sequence (P18434 whole entry partner): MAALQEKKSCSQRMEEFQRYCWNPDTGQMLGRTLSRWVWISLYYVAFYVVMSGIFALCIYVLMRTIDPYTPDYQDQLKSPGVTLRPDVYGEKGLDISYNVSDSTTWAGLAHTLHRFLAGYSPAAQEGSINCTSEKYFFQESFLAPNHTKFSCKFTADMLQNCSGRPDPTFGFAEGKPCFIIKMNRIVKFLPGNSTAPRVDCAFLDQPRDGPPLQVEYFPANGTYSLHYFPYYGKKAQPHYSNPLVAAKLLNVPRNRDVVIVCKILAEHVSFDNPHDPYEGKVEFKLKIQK
protocol.summary: Inhibitory effects on proton pump (H+/K+-ATPase) activity
measurement.parameters: hog gastric vesicles, K+ stimulated H+/K+-ATPase activity, Pi at 620 nm, 30 minutes at 37° C.
Experimental: 1-1. Preparation of gastric proton pump vesicles The hog fundic regions containing parietal and peptic cells were scraped with slide-glass. […] The inhibitory effects of the compounds of the present invention against proton pump activity were evaluated in 96-well plate. In this assay, the K^+specific H^+/K^+-ATPase activity was calculated based on the difference between the activity of H^+/K^30 -ATPase activity with K^30 and without K^30 ion. […]
pIC50: −log10 of the molar value. Counter-ions that a name gives are not always drawn.
endpoint.label: pIC50

[
  {
    "molecule": "Cc1c(C)n(Cc2ccc(C(F)(F)F)cc2)c2c(OCc3ccc(F)cc3)cncc12 [Example 10, hydrochloride]",
    "pIC50": 6.47
  },
  {
    "molecule": "Cc1c(C)n(Cc2ccccc2F)c2c(OCc3ccc(F)cc3)cncc12 [Example 15, hydrochloride]",
    "pIC50": 6.72
  }
]

A. C=CCn1c(C)c(C)c2cncc(OCc3ccc(F)cc3)c21 [Example 5, hydrochloride]
B. Cc1ccc(C)c(Cn2c(C)c(C)c3cncc(OCc4ccc(F)cc4)c32)c1 [Example 13, hydrochloride]
C. Cc1[nH]c2c(OCc3ccc(F)cc3)cncc2c1C [Example 1, hydrochloride]
D. Cc1ccc(Cn2c(C)c(C)c3cncc(OCc4ccc(F)cc4)c32)cc1 [Example 8, hydrochloride]
Request: Ascending by pIC50, please. Submit the labels in the order that the ranking request calls for.
Response: B, A, C, D

A. COC(=O)c1ccc(Cn2c(C)c(C)c3cncc(N4CCc5ccccc5C4)c32)cc1 [Example 29, hydrochloride]
B. Cc1c(C)n(Cc2ccccc2)c2c(N3CCc4ccccc4C3)cncc12 [Example 35, hydrochloride]
Request: Would you mind telling me which has the lower recorded pIC50 between A and B ? # answer = label of selected item
Response: A

====

ED50 overview
Tested on: basal gastric acid secretion
protocol.summary: Inhibitory effects on basal gastric acid secretion in pylorus-ligated rats (Shay's rat model)
Assay type: in vivo, Sprague Dawley (SD) rats
measurement.parameters: oral, one hour before pylorus ligation, total acid output 5 hours after ligation, male SD rats
Value expressed in mg/kg; do not type the unit.

[
  {
    "sample.smiles": "CCCn1c(C)c(C)c2cncc(OCc3ccc(F)cc3)c21.Cl",
    "unit.string": "mg/kg",
    "ED50": 1.8
  },
  {
    "sample.smiles": "Cc1c(C)n(Cc2ccccc2)c2c(OCc3ccc(F)cc3)cncc12.Cl",
    "unit.string": "mg/kg",
    "ED50": 3.3
  },
  {
    "sample.smiles": "C#CCn1c(C)c(C)c2cncc(OCc3ccc(F)cc3)c21.Cl",
    "unit.string": "mg/kg",
    "ED50": 1.1
  }
]

Lab note: next molecule to report on.
GET /value?item= "COCCn1c(C)c(C)c2cncc(OCc3ccc(F)cc3)c21.Cl" &field=ED50 returns 3.3

====

target: proton pump (H+/K+-ATPase) (Sus scrofa, UniProt P19156)
Construct: used as an enzyme source of the in vitro enzyme reaction assay of proton pump; membrane vesicles, lyophilized
protocol.summary: Inhibitory effects on proton pump (H+/K+-ATPase) activity
measurement.parameters: hog gastric vesicles, K+ stimulated H+/K+-ATPase activity, Pi at 620 nm, 30 minutes at 37° C.
pIC50: −log10 of the molar value. Counter-ions that a name gives are not always drawn.
endpoint.label: pIC50

Please review the following examples before continuing.
[
  {
    "compound": "Cc1c(C)n(CC2CC2)c2c(OCc3ccc(F)cc3)cncc12 [Example 4, hydrochloride]",
    "pIC50": 8.00
  },
  {
    "compound": "CCCn1c(C)c(C)c2cncc(OCc3ccc(F)cc3)c21.Cl [Example 16, hydrochloride]",
    "pIC50": 8.00
  }
]

1. COCCn1c(C)c(C)c2cncc(OCc3ccc(F)cc3)c21.Cl [Example 17, hydrochloride]
2. Cc1c(C)n(Cc2cccc(C#N)c2)c2c(N3CCc4ccccc4C3)cncc12 [Example 41, hydrochloride]
Request: Identify the entry with the larger pIC50. Options: 1 and 2 Answer by stating the label of the chosen item.
Response: 1
